Would you kindly list Emax for each of these molecules?
# measured.target: human V2 receptor (Homo sapiens)
# Construct: expressed in transfected cells
# Sequence (P30518 whole entry): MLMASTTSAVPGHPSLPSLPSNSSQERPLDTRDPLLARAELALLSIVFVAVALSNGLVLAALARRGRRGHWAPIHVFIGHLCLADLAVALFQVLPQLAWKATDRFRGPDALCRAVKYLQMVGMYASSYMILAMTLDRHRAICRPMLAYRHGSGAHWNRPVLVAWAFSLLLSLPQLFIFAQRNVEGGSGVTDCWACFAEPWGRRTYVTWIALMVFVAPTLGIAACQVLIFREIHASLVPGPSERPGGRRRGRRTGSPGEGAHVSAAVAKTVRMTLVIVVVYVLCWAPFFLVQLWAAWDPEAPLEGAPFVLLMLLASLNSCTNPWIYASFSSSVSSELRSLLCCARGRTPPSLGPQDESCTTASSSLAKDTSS
# test.summary: Calcium flux assay (FLIPR) in CHO cells expressing human V2+Gqs5
# Format: cell-based
# condition.label: CHO; maximum response normalized to endogenous full agonist = 100%; read-out: hV2 efficacy
*1 amine or outer side, *2 acyl side, *3 side chain or, on linkers, in order; H or OH if unused. Where a SMILES comes first, the peptide text is derived from it. Bridges are numbered along the chain shown (N, C = ends). [ ]: non-standard residue; d: D form. Hcy(O2-CH2CH2CO) = O=C([C@H](CCS(=O)(=O)CCC(=O)[*:3])N[*:1])[*:2]; αMeL = CC(C)C[C@](C)(N)C(=O)O; NcPrGly = O=C(O)CNC1CC1
Give bare numbers, in %.

Answered examples (2):
CC[C@H](C)[C@@H]1NC(=O)[C@H](Cc2ccc(O)cc2)NC(=O)CCS(=O)(=O)CC[C@@H](C(=O)N(CC(=O)N[C@@H](CC(C)C)C(=O)NCC(N)=O)C2CC2)NC(=O)[C@H](CC(N)=O)NC(=O)[C@H](CCC(N)=O)NC1=O [Example 27] (HELM PEPTIDE1{Y.I.Q.N.[O=C([C@H](CCS(=O)(=O)CCC(=O)[*:3])N[*:1])[*:2]].[O=C(CN(C1CC1)[*:1])[*:2]].L.G.[am]}$PEPTIDE1,PEPTIDE1,1:R1-5:R3$$$V2.0) : 110
CC[C@H](C)[C@@H]1NC(=O)[C@H](Cc2ccc(O)cc2)NC(=O)CCS(=O)(=O)CC[C@@H](C(=O)N(CC(=O)N[C@@](C)(CC(C)C)C(=O)NCC(N)=O)C2CC2)NC(=O)[C@H](CC(N)=O)NC(=O)[C@H](CCC(N)=O)NC1=O [Example 28] (YIQN[Hcy(O2-CH2CH2CO)][NcPrGly][αMeL]G-NH2; lactam N-5) : 129

Assign Emax to the following record: CC[C@H](C)[C@@H]1NC(=O)[C@H](Cc2ccc(O)cc2)NC(=O)CCS(=O)(=O)CC[C@@H](C(=O)N(CC(=O)NC(C)(C)C(=O)NCC(N)=O)C2CC2)NC(=O)[C@H](CC(N)=O)NC(=O)[C@H](CCC(N)=O)NC1=O [Example 30] (HELM PEPTIDE1{Y.I.Q.N.[O=C([C@H](CCS(=O)(=O)CCC(=O)[*:3])N[*:1])[*:2]].[O=C(CN(C1CC1)[*:1])[*:2]].[Aib].G.[am]}$PEPTIDE1,PEPTIDE1,1:R1-5:R3$$$V2.0) 131

====

Would you kindly list Emax for each of these molecules?
# measured.target: human Oxytocin (OTR) receptor (Homo sapiens)
# Construct: expressed in transfected cells
# Sequence (P30559 whole entry): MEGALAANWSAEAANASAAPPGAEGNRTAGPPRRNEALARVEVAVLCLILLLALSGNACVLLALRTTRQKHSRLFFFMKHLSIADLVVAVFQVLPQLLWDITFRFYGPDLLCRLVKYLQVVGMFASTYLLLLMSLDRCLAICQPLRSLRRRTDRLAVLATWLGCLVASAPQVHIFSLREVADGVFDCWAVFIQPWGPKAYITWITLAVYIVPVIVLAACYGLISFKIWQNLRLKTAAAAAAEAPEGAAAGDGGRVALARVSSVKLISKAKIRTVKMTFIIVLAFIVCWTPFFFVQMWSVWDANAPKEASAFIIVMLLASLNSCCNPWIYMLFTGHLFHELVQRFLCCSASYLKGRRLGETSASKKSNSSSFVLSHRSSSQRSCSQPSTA
# test.summary: Calcium flux assay (FLIPR) in CHO cells expressing human OTR
# Assay type: cell-based
# condition.label: CHO; maximum response normalized to endogenous full agonist = 100%; read-out: hOT efficacy
Where a SMILES comes first, the peptide text is derived from it.
One number for each entry, in %.

Answered examples (2):
CC[C@H](C)[C@@H]1NC(=O)[C@H](Cc2ccc(O)cc2)NC(=O)CCS(=O)(=O)CC[C@@H](C(=O)N(C)CC(=O)N[C@H](C(=O)NCC(N)=O)C(C)C)NC(=O)[C@H](CC(N)=O)NC(=O)[C@H](CCC(N)=O)NC1=O [Example 12] (HELM PEPTIDE1{Y.I.Q.N.[O=C([C@H](CCS(=O)(=O)CCC(=O)[*:3])N[*:1])[*:2]].[Sar].V.G.[am]}$PEPTIDE1,PEPTIDE1,1:R1-5:R3$$$V2.0) : 112
CC[C@H](C)[C@@H]1NC(=O)[C@H](Cc2ccc(O)cc2)NC(=O)CCS(=O)(=O)CC[C@@H](C(=O)N(CC(=O)N[C@@H](CC(C)C)C(=O)NCC(N)=O)C2CC2)NC(=O)[C@H](CC(N)=O)NC(=O)[C@H](CCC(N)=O)NC1=O [Example 27] (HELM PEPTIDE1{Y.I.Q.N.[O=C([C@H](CCS(=O)(=O)CCC(=O)[*:3])N[*:1])[*:2]].[O=C(CN(C1CC1)[*:1])[*:2]].L.G.[am]}$PEPTIDE1,PEPTIDE1,1:R1-5:R3$$$V2.0) : 125

Assign Emax to the following record: CC[C@H](C)[C@@H]1NC(=O)[C@H](Cc2ccc(O)cc2)NC(=O)CCS(=O)(=O)CC[C@@H](C(=O)N(C)CC(=O)N[C@@](C)(CC(C)C)C(=O)NCC(N)=O)NC(=O)[C@H](CC(N)=O)NC(=O)[C@H](CCC(N)=O)NC1=O [Example 22] (HELM PEPTIDE1{Y.I.Q.N.[O=C([C@H](CCS(=O)(=O)CCC(=O)[*:3])N[*:1])[*:2]].[Sar].[CC(C)C[C@](C)(N[*:1])C(=O)[*:2]].G.[am]}$PEPTIDE1,PEPTIDE1,1:R1-5:R3$$$V2.0) 109
